Biological target: T1, human IL-10 receptor (hIL-10R alpha and beta chains) on HEK-Blue IL-10 reporter cells (human, UniProt Q13651 22-578; Q08334 20-325)
T1 sequence 1: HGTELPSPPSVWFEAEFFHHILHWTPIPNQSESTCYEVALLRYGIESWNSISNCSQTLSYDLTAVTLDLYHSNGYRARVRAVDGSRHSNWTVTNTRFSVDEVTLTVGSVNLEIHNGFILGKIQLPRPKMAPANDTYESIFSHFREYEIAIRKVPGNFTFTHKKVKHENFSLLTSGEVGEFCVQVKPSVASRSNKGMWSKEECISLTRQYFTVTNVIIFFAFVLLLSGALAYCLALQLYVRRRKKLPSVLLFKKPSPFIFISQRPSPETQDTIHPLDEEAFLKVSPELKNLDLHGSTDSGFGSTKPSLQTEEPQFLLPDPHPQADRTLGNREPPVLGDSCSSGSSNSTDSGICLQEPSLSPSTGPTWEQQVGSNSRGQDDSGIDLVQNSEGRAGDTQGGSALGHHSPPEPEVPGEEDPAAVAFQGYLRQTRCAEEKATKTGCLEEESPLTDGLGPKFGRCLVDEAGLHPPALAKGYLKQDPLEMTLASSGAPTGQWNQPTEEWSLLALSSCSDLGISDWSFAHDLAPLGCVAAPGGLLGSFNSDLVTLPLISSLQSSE
T1 sequence 2: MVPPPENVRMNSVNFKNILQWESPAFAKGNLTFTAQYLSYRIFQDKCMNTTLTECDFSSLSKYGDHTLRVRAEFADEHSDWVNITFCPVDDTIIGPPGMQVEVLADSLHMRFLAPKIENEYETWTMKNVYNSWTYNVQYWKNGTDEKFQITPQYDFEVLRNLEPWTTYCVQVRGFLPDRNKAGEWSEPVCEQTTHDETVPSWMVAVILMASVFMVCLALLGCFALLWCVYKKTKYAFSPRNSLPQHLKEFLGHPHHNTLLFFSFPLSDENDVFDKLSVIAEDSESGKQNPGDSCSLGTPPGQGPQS
Assay: cell-based or functional assay
assay endpoint: Abs 630 (25 nM) (Abs 630)

- binder: "IL10R binding molecule of SEQ ID NO: 350 (bispecific antibody) QVQLQESGGGSVQTGGSLRLSCAASGYTYLRGCMGWFRQAPGKEREGVAVMDVVGDRRSYIDSVKGRFTISRDNAANSVYLQMDNLKPEDTAMYYCTAGPNCVGWRSGLDYWGQGTQVTVSSGGGSQVQLQESGGGSVQAGGSLRLSCAVSGYAYSTYCMGWFRQAPGKEREGVAAIDSGGSTSYADSVKGRFTISKDNAKNTLYLRMNSLKPEDTAMYYCAAVPPPPDGGSCLFLGPEIKVSKADFRYWGQGTQVTVSSASHHHHHH"
  measured number: 0.43
- binder: "IL10R binding molecule of SEQ ID NO: 261 (bispecific antibody) QVQLQESGGGSVQAGGSLRLSCAASRYLYSIDYMAWFRQSPGKEREPVAVIYTASGATFYPDSVKGRFTISQDNAKMTVYLQMNSLKSEDTAMYYCAAVRKTDSYLFDAQSFTYWGQGTQVTVSSGGGSQVQLQESGGGSVQAGGSLRLSCAASGYSYSSYCMGWFRQAPGKEREGVATIDSDGMTRYADSVKGRFTISKDNAKNTLYLQMNSLKPEDTAMYYCAAPLYDCDSGAVGRNPPYWGQGTQVTVSSASHHHHHH"
  measured number: 0.44
- binder: "IL10R binding molecule of SEQ ID NO: 317 (bispecific antibody) QVQLQESGGGSVQAGGSLRLSCAASGYTYSSYCMGWFRQAPGKEREGVAHIDSDGSTSYADSVKGRFTISKDNAKNTLYLQMNSLKPEDTAMYYCAADPIPGPGYCDGGPNKYWGQGTQVTVSSGGGSQVQLQESGGGSVQAGGSLRLSCGASGYTYSSYCMGWFRQVPGKEREGVAVIDSDGSTSYADSVKGRFTISKDNGKNTLYLQMNSLKPEDTAMYYCAADLGHYRPPCGVLYLGMDYWGKGTQVTVSSASHHHHHH"
  measured number: 0.45
